# credit: patent US20220112288A1

Exercise: for every item that follows, state its recorded kon.
# TARGET_SYSTEM: T1, Recombinant human CD4 (R&D Systems, Cat. 10327-CD) (human, UniProt P01730 26-390, limits assumed)
# T1 construct: Bought reagent; also called huCD4
# TEST_NAME: BLI Octet, non-clonal supernatant on AMC sensor, 100 nM human CD4, 1:1 local fit;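 further: Single-concentration kinetics per supernatant, with the 1:1 model fitted across both the association and dissociation phases of the sensorgram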
Give the value, in units of M⁻¹ s⁻¹, as a plain number.

Task: # lookup: kon of 75110_07B16A (antibody, V domains shown, Tested as non-clonal AlivaMab Mouse Kappa hybridoma supernatant, captured by anti-mouse IgG Fc sensor) VH: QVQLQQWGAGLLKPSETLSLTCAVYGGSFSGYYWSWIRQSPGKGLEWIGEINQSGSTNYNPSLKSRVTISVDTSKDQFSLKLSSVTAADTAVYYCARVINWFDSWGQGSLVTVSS VL: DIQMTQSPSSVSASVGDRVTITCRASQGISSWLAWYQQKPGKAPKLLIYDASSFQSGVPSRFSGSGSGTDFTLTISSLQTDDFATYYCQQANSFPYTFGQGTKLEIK
Output: 160000

Task: Can you check 75110_02N15A (antibody, V domains shown, Tested as non-clonal AlivaMab Mouse Kappa hybridoma supernatant, captured by anti-mouse IgG Fc sensor) VH: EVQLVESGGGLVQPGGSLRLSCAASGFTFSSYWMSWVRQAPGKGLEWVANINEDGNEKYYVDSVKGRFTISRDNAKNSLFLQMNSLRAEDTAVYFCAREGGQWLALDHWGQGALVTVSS VL: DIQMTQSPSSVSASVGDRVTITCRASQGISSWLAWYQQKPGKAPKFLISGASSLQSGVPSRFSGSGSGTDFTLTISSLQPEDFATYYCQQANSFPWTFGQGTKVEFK next?
Output: 100000

Task: Queued: 75110_09N20A (antibody, V domains shown, Tested as non-clonal AlivaMab Mouse Kappa hybridoma supernatant, captured by anti-mouse IgG Fc sensor) VH: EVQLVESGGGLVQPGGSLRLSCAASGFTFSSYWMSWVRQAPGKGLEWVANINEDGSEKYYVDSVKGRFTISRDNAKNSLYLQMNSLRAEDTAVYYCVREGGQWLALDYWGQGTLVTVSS VL: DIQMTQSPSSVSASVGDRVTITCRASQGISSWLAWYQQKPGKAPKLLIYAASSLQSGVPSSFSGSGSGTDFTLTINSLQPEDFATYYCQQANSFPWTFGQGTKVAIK
Output: 130000

Task: And what about the binder 75110_14N19A (antibody, V domains shown, Tested as non-clonal AlivaMab Mouse Kappa hybridoma supernatant, captured by anti-mouse IgG Fc sensor) VH: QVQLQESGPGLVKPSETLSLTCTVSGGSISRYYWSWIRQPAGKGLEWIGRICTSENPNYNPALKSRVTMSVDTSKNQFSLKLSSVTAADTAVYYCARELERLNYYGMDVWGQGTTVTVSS VL: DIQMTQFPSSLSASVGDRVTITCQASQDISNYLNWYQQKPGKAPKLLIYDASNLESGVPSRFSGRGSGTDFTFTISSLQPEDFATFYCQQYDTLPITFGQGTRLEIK ?
Output: 143000
